TESTED SYSTEM: HLA-A*03:01
ASSAY NOTES: IEDB peptide-MHC binding, purified MHC/competitive/fluorescence; filed as Kd, often an IC50 or EC50 that approximates it; bounds were set here for any values at or beyond the usual limits of such assays
EXPERIMENTAL SETUP: source organism: Plasmodium falciparum
MEASURED PARAMETER: Kd

Q. I am curious: what Kd value has been reported for `LDYANDIEK` ?
A. ≥ 100 µM

Q. I am curious: what Kd value has been reported for `SVFNVVNSSI` ?
A. ≥ 100 µM

Q. I am curious: what Kd value has been reported for `VTCGNGIQV` ?
A. ≥ 100 µM

Q. I am curious: what Kd value has been reported for `RIKPGSADK` ?
A. 17.7 µM

Q. I am curious: what Kd value has been reported for `RIKPGSANK` ?
A. ≥ 21.3 µM

Q. I am curious: what Kd value has been reported for `IEKKICKMEK` ?
A. ≥ 100 µM

Q. I am curious: what Kd value has been reported for `QLDYENDIEK` ?
A. ≥ 100 µM

* * *

I'd appreciate it if you could supply Kd values for the items below.
TESTED SYSTEM: HLA-A*02:01
ASSAY NOTES: IEDB peptide-MHC binding, purified MHC/competitive/fluorescence; filed as Kd, often an IC50 or EC50 that approximates it; bounds were set here for any values at or beyond the usual limits of such assays
EXPERIMENTAL SETUP: source organism: Plasmodium falciparum

Q. I am curious: what Kd value has been reported for `YLKIIQNSL` ?
A. 4.88 µM

Q. I am curious: what Kd value has been reported for `SVFNVVNSSI` ?
A. ≥ 342 µM

Q. I am curious: what Kd value has been reported for `YLKKIQYSL` ?
A. 2.58 µM

Q. I am curious: what Kd value has been reported for `SVTCGNGIQV` ?
A. ≥ 489 µM

Q. I am curious: what Kd value has been reported for `CKMEKCSSV` ?
A. ≥ 100 µM

Q. I am curious: what Kd value has been reported for `HIKEYLNKI` ?
A. ≥ 259 µM

Q. I am curious: what Kd value has been reported for `YLKKIQNSL` ?
A. 2.18 µM

Q. I am curious: what Kd value has been reported for `HITEYLKKI` ?
A. ≥ 148 µM

* * *

TESTED SYSTEM: HLA-A*01:01
ASSAY NOTES: IEDB peptide-MHC binding, purified MHC/competitive/fluorescence; filed as Kd, often an IC50 or EC50 that approximates it; bounds were set here for any values at or beyond the usual limits of such assays
EXPERIMENTAL SETUP: source organism: Plasmodium falciparum
MEASURED PARAMETER: Kd

Q. I am curious: what Kd value has been reported for `NVDENANAN` ?
A. ≥ 100 µM

Q. I am curious: what Kd value has been reported for `QLDYENDIEK` ?
A. ≥ 726 µM

Q. I am curious: what Kd value has been reported for `NEEPSDKHIK` ?
A. ≥ 100 µM

Q. I am curious: what Kd value has been reported for `CSSVFNVVN` ?
A. ≥ 82.5 µM

Q. I am curious: what Kd value has been reported for `NSSIGLIMV` ?
A. ≥ 215 µM

Q. I am curious: what Kd value has been reported for `LSTEWSPCS` ?
A. ≥ 100 µM

Q. I am curious: what Kd value has been reported for `PSDKHIKEY` ?
A. ≥ 24.8 µM

Q. I am curious: what Kd value has been reported for `NVDENANANN` ?
A. ≥ 667 µM

Q. I am curious: what Kd value has been reported for `PSDKHITEY` ?
A. 2.67 µM

Q. I am curious: what Kd value has been reported for `NVDPNANPNV` ?
A. ≥ 100 µM

Q. I am curious: what Kd value has been reported for `KMEKCSSVF` ?
A. ≥ 100 µM

* * *

TESTED SYSTEM: HLA-B*07:02
ASSAY NOTES: IEDB peptide-MHC binding, purified MHC/competitive/fluorescence; filed as Kd, often an IC50 or EC50 that approximates it; bounds were set here for any values at or beyond the usual limits of such assays
EXPERIMENTAL SETUP: source organism: Plasmodium falciparum
MEASURED PARAMETER: Kd

Q. Form entry - test system: HLA-B*07:02; read-out: Kd; sequence: `NPNANPNAN`
A. ≥ 100 µM

Q. Form entry - test system: HLA-B*07:02; read-out: Kd; sequence: `QVRIKPGSA`
A. ≥ 134 µM

Q. Form entry - test system: HLA-B*07:02; read-out: Kd; sequence: `NPNANPNANP`
A. ≥ 100 µM

Q. Form entry - test system: HLA-B*07:02; read-out: Kd; sequence: `NPNVDPNANP`
A. ≥ 100 µM

Q. Form entry - test system: HLA-B*07:02; read-out: Kd; sequence: `KMEKCSSVF`
A. ≥ 100 µM

Q. Form entry - test system: HLA-B*07:02; read-out: Kd; sequence: `SPCSVTCGNG`
A. ≥ 100 µM

Q. Form entry - test system: HLA-B*07:02; read-out: Kd; sequence: `NPDPNANPNV`
A. ≥ 100 µM

Q. Form entry - test system: HLA-B*07:02; read-out: Kd; sequence: `MPNDPNRNV`
A. ≥ 511 µM

Q. Form entry - test system: HLA-B*07:02; read-out: Kd; sequence: `YLKKIQNSL`
A. 9.2 µM

Q. Form entry - test system: HLA-B*07:02; read-out: Kd; sequence: `SVTCGNGIQV`
A. ≥ 100 µM

Q. Form entry - test system: HLA-B*07:02; read-out: Kd; sequence: `SVFNVVNSSI`
A. ≥ 100 µM

Q. Form entry - test system: HLA-B*07:02; read-out: Kd; sequence: `KPGSADKPKD`
A. ≥ 100 µM

Q. Form entry - test system: HLA-B*07:02; read-out: Kd; sequence: `KPGSANKPKD`
A. ≥ 100 µM

* * *

TESTED SYSTEM: HLA-B*44:02
ASSAY NOTES: IEDB peptide-MHC binding, purified MHC/competitive/fluorescence; filed as Kd, often an IC50 or EC50 that approximates it; bounds were set here for any values at or beyond the usual limits of such assays
EXPERIMENTAL SETUP: source organism: Plasmodium falciparum
pKd: −log10 of the molar value.
MEASURED PARAMETER: pKd

Q. I am curious: what pKd value has been reported for `TEWSPCSVT` ?
A. ≤ 4.00

Q. I am curious: what pKd value has been reported for `DENANANNA` ?
A. ≤ 3.05

Q. I am curious: what pKd value has been reported for `TEYLKKIQN` ?
A. ≤ 4.00

Q. I am curious: what pKd value has been reported for `KDELDYENDI` ?
A. ≤ 4.00

Q. I am curious: what pKd value has been reported for `MEKCSSVFN` ?
A. ≤ 3.85

Q. I am curious: what pKd value has been reported for `NEEPSDQHI` ?
A. ≤ 4.00

Q. I am curious: what pKd value has been reported for `KEYLNKIQNS` ?
A. ≤ 4.00

Q. I am curious: what pKd value has been reported for `NEEPSDKHIK` ?
A. ≤ 4.00

Q. I am curious: what pKd value has been reported for `IEQYLKKIQY` ?
A. ≤ 3.80

Q. I am curious: what pKd value has been reported for `NEEPSDKHI` ?
A. ≤ 4.00

Q. I am curious: what pKd value has been reported for `DELDYANDI` ?
A. ≤ 3.56

Q. I am curious: what pKd value has been reported for `IQNSLSTEW` ?
A. ≤ 3.87

Q. I am curious: what pKd value has been reported for `MPNDPNRNV` ?
A. ≤ 4.00

* * *

TESTED SYSTEM: HLA-A*01:01
ASSAY NOTES: IEDB peptide-MHC binding, purified MHC/competitive/fluorescence; filed as Kd, often an IC50 or EC50 that approximates it; bounds were set here for any values at or beyond the usual limits of such assays
EXPERIMENTAL SETUP: source organism: Plasmodium falciparum
I'd appreciate it if you could supply pKd values for the items below.
// pKd here means minus log10 of the molar concentration (mol/L)

Q. I am curious: what pKd value has been reported for `PSDKHIEQY` ?
A. 5.70

Q. I am curious: what pKd value has been reported for `SADKPKDQLD` ?
A. 5.05

Q. I am curious: what pKd value has been reported for `STEWSPCSV` ?
A. 5.50

* * *

TESTED SYSTEM: HLA-A*24:02
ASSAY NOTES: IEDB peptide-MHC binding, purified MHC/competitive/fluorescence; filed as Kd, often an IC50 or EC50 that approximates it; bounds were set here for any values at or beyond the usual limits of such assays
EXPERIMENTAL SETUP: source organism: Plasmodium falciparum
I'd appreciate it if you could supply Kd values for the items below.
Report only the number, with the unit µM understood.

Q. I am curious: what Kd value has been reported for `YLKKIQNSL` ?
A. 11.2

Q. I am curious: what Kd value has been reported for `LIMVLSFLF` ?
A. 19.3

Source: the Immune Epitope Database (IEDB)
